- Test system: TDF
- Assay Summary: cell number relative to DMSO (% of DMSO); higher = more cells (less growth inhibition / toxicity)
- Experimental Setup: concentration: 10 µM; 24 h
Test Readout: cell number
A bare number is all that is needed in reply.

Noted for CC1=C(CC(=O)O)c2cc(F)ccc2C1=Cc1ccc(S(C)(=O)=O)cc1 : its cell number reads 117

====

- System: HCC1569
- Assay Summary: H1.0 immunofluorescence intensity relative to DMSO (% of DMSO); higher = stronger H1.0 induction, active = 140 or more
- Experimental Setup: concentration: 10 µM; 24 h
Threshold rule: H1.0 immunofluorescence intensity greater than or equal to 100 is true; below that, false.

Study these solved cases before continuing.
[[record]]
molecule = "Cl.O[Si](CCCN1CCCCC1)(c1ccc(F)cc1)C1CCCCC1 (centres undefined) [Hexahydro-sila-difenidol hydrochloride, p-fluoro analog]"
tested_on = "HCC1569"
category_label = "true"

[[record]]
molecule = "COc1cc2ncc(-c3ccccc3)nc2cc1OC [Tyrphostin AG 1296]"
tested_on = "HCC1569"
category_label = "true"

[[record]]
molecule = "CCCSc1ccc2nc(NC(=O)OC)[nH]c2c1"
tested_on = "HCC1569"
category_label = "true"

[[record]]
molecule = "COC(=O)c1ccc2c(c1)nc(NC(=O)c1ccccc1)n2CCCc1ccccc1"
tested_on = "HCC1569"
category_label = "false"

[[record]]
molecule = "NC(=O)c1ccc(-c2nc(-c3ccc4c(c3)OCO4)c(-c3ccccn3)[nH]2)cc1"
tested_on = "HCC1569"
category_label = "true"


We next turn to a different molecule, shown below.
Evaluate Cl.NC1(C(=O)O)CCCCC1 [1-Amino-1-cyclohexanecarboxylic acid hydrochloride] : H1.0 immunofluorescence intensity at minimum 100? false

====

- System: TDF
- Assay Summary: cell number relative to DMSO (% of DMSO); higher = more cells (less growth inhibition / toxicity)
- Experimental Setup: concentration: 10 µM; 24 h
Listing: cell number of selected compounds
Format: numeric value only, no unit, no commentary.

The reported cell number of the compound N[C@@H](Cc1c[nH]c2ccc(O)cc12)C(=O)O [5-Hydroxy-L-tryptophan] was 94.8

Lab book: cell number of O=c1cc(-c2ccccc2)oc2cc(O)c(O)c(O)c12 noted as 93

Measured cell number of O=c1cc(-c2ccc(O)cc2)oc2cc(OC3OC(CO)C(O)C(O)C3O)c(C3OC(CO)C(O)C(O)C3O)c(O)c12 (centres undefined) : 89.5

For CN1CCN(C2=c3ccccc3=Nc3ccc(Cl)cc3N2)CC1 the compound record lists cell number as 105

====

- Test system: HCC1569
- Assay Summary: cell number relative to DMSO (% of DMSO); higher = more cells (less growth inhibition / toxicity)
- Experimental Setup: concentration: 10 µM; 24 h
Test Readout: cell number
Hey, just send me the number, nothing else.

[[record]]
compound = "O=C(Nc1cc(C(=O)Nc2ccc(S(=O)(=O)[O-])cc2S(=O)(=O)[O-])cc(C(=O)Nc2ccc(S(=O)(=O)[O-])cc2S(=O)(=O)[O-])c1)Nc1cc(C(=O)Nc2ccc(S(=O)(=O)[O-])cc2S(=O)(=O)[O-])cc(C(=O)Nc2ccc(S(=O)(=O)[O-])cc2S(=O)(=O)[O-])c1.[Na+].[Na+].[Na+].[Na+].[Na+] [NF449 octasodium salt]"
observed_value = 97.4

[[record]]
compound = "CCCCCC(O)C=CC1=C(CCCCCCC(=O)O)C(=O)CC1 (stereo unspecified)"
observed_value = 101

[[record]]
compound = "N#Cc1c(-c2ccccc2)no[n+]1[O-]"
observed_value = 64.2

[[record]]
compound = "Cc1cnc(NC(=O)C2=C(O)c3ccccc3S(=O)(=O)N2C)s1"
observed_value = 103

[[record]]
compound = "CC(c1cc2ccccc2s1)N(O)C(N)=O (stereo unspecified)"
observed_value = 102


For reference, reported cell number for CSc1ccc2c(c1)N(CCC1CCCCN1C)c1ccccc1S2 (stereo unspecified) stands at 102

# cell number (compound: CC(C)NCC(O)COc1cccc2ccccc12 (stereo not drawn) [Propranolol S(-)] ) is 102

response.value for Br.Br.N=C(N)SCCN [2-(2-Aminoethyl)isothiourea dihydrobromide] (field: cell number) = 99.2

Lab note: measured cell number of Cl.Cl.N=C(N)c1ccc(N)cc1 [4-Aminobenzamidine dihydrochloride] was 99.9

# compound CCCCCC(O)C=CC1C(O)CC(O)C1CCCCCCC(=O)O (stereo unspecified) ; its cell number = 106

Entry C=CCc1ccccc1OCC(O)CNC(C)C.Cl (stereo unspecified) [Alprenolol.HCl] — recorded cell number = 102

Per the record, Cl.Cl.O=C(O)COCCN1CCN(C(c2ccccc2)c2ccc(Cl)cc2)CC1 (stereo unspecified) [Cetirizine 2HCl] has cell number of 98.9

# compound CCCCCC=CCC=CCC=CCC=CCCCC(=O)OC(CO)CO ; its cell number = 104

// field: cell number; key: CCCCCC=CCC=CC=CC=CC(SCC(N)C(=O)O)C(O)CCCC(=O)O (stereo unspecified) ; value = 103

Entry under test: Cn1ccc(NC(=O)c2cc(Oc3ccc(C(=O)N4CCC4)c(F)c3)c3c(c2)OC(C)(C)C3)n1 . Its cell number was 103

cell number reading for O=NN(CCCl)C(=O)NC1CCCCC1 : 104

====

- Test system: HCC1569
- Assay Summary: cell number relative to DMSO (% of DMSO); higher = more cells (less growth inhibition / toxicity)
- Experimental Setup: concentration: 10 µM; 24 h
cell number values, listed per item
Reply with just the number.

Worked set:
[[record]]
molecule = "CC(N)(Cc1ccc(O)c(O)c1)C(=O)O (racemic)"
observed_value = 101

[[record]]
molecule = "Br.CN1CCc2cc(O)c(O)cc2C(c2ccccc2)C1 (stereo not drawn)"
observed_value = 105

[[record]]
molecule = "CC(C)c1cccc(C(C)C)c1N1C(=O)c2ccc(O)cc2C1=O"
observed_value = 60.4


For record CCCCc1oc2ccccc2c1C(=O)c1cc(I)c(OCCN(CC)CC)c(I)c1.Cl [Amiodarone.HCl] the listed cell number is 99.7

In plain terms, CCOC(=O)CNC(=O)[C@@H]1CCCN1C(=O)Cc1ccccc1 has a documented cell number of 102

The recorded cell number for CC(=O)OCC1=C(C(=O)[O-])N2C(=O)C(NC(=O)Cc3cccs3)C2SC1.[Na+] (stereo not drawn) [Cephalothin sodium] is 100

====

- System: HCC1569
- Assay Summary: H1.0 immunofluorescence intensity relative to DMSO (% of DMSO); higher = stronger H1.0 induction, active = 140 or more
- Experimental Setup: concentration: 10 µM; 24 h
Listed next: entries and their corresponding H1.0 immunofluorescence intensity.
Would you mind answering with just the numeric figure?

[[record]]
compound = "Nc1ncnc2c1ncn2C1OC(C(=O)NC2CC2)C(O)C1O (stereo not drawn)"
observed_value = 93.6

[[record]]
compound = "Br.CN1C2CCC1CC(OC(=O)C(O)c1ccccc1)C2 (racemic) [DL-Homatropine hydrobromide]"
observed_value = 85.8

[[record]]
compound = "O=c1[nH]c(=O)n(C2CC(O)C(CO)O2)cc1I (stereo not drawn)"
observed_value = 121


The recorded H1.0 immunofluorescence intensity for entry CCCCCCCCOC(=O)C=Cc1ccc(O)c(O)c1 [n-Octyl caffeate] equals 120

Item: CCC(=O)OC1(C(=O)SCF)C(C)CC2C3CC(F)C4=CC(=O)C=CC4(C)C3(F)C(O)CC21C (stereo not drawn) | H1.0 immunofluorescence intensity: 116

Lab note: measured H1.0 immunofluorescence intensity of COc1cc2c(cc1OC)-c1[nH]nc(Nc3cccc(F)c3)c1C2 was 160

Note to self: H1.0 immunofluorescence intensity recorded for CCN(CC)CCOCCOC(=O)C1(c2ccccc2)CCCC1.O=C(O)CC(O)(CC(=O)O)C(=O)O [Carbetapentane citrate] was 97.4

H1.0 immunofluorescence intensity reading for CCN(CC)CC(=O)Nc1c(C)cccc1C.Cl [Lidocaine hydrochloride] : 94.4

====

- Tested on: TDF
- Assay Summary: H1.0 immunofluorescence intensity relative to DMSO (% of DMSO); higher = stronger H1.0 induction, active = 120 or more
- Experimental Setup: concentration: 10 µM; 24 h
So basically: H1.0 immunofluorescence intensity at 100 or higher? That is 1 (yes). Lower than 100? That is 0 (no).

[[record]]
compound = "C=CC1(C)CC(=O)C2(O)C(C)(O1)C(OC(C)=O)C(O)C1C(C)(C)CCC(O)C12C (stereo unspecified)"
tested_on = "TDF"
category_label = "0 (no)"


Would you say CCC1(O)CC(OC2CC(N(C)C)C(OC3CC(O)C(OC4CCC(=O)C(C)O4)C(C)O3)C(C)O2)c2c(cc3c(c2O)C(=O)c2c(O)cccc2C3=O)C1C(=O)OC (stereo unspecified) shows H1.0 immunofluorescence intensity at minimum 100? 1 (yes)

Say whether O=C([O-])c1cc2cc(Cc3cccnc3)ccc2o1.[Na+] [Furegrelate sodium] shows H1.0 immunofluorescence intensity of 100 or more. 0 (no)

Check the entry COc1cc(C(O)C(=O)O)ccc1O (racemic) : does H1.0 immunofluorescence intensity equal or exceed 100? 0 (no)

Check if H1.0 immunofluorescence intensity >= 100 (inclusive). Item: O=C1CC(=O)c2c(Cl)c(Cl)c(Cl)c(Cl)c21 1 (yes)
